The values you see were collected from patent US8937176B2.

# target entity: human recombinant mGluR5 (Homo sapiens)
# Sequence (P41594 21-1212): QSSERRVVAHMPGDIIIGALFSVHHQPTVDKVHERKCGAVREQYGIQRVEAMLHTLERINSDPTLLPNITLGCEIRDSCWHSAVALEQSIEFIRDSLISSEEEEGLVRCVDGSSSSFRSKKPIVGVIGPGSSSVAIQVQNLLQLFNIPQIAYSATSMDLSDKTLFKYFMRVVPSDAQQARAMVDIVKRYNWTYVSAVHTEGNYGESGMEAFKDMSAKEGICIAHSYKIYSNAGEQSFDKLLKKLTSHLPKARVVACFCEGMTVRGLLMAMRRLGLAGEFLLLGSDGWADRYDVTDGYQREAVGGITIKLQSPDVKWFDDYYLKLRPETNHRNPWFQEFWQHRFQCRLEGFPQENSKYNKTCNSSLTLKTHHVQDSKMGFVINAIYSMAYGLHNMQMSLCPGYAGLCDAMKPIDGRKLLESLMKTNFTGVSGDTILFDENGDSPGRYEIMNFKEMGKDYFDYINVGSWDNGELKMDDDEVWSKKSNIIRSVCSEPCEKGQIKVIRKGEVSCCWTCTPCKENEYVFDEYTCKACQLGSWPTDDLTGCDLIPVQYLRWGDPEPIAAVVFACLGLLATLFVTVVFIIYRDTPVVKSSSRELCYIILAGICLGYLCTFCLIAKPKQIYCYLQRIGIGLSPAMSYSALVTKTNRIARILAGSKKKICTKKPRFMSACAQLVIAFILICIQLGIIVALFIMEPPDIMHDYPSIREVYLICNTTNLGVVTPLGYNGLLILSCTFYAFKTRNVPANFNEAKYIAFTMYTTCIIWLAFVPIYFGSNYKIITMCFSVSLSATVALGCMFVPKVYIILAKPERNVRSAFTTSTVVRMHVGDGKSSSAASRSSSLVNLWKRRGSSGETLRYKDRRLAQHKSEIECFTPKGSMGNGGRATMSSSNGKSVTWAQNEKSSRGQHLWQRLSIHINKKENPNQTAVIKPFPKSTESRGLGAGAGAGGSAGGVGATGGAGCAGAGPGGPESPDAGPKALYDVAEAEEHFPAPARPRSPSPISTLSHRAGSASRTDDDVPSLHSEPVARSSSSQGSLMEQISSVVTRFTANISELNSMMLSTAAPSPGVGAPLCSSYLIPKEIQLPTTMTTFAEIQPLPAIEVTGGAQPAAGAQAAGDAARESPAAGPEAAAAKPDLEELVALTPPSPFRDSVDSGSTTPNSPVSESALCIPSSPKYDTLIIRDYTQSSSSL
# method: Positive modulation of mGluR5, calcium based FLIPR assay in HEK 293 cells
# experimental setup: EC50 of the modulation; HEK 293 cell line expressing human recombinant mGluR5; glutamate at approximately 5% basal stimulation; peak height of Ca release fluorescence signal
pEC50: −log10 of the molar value.
property: pEC50

Solved cases (5 shown):
O=C(Cc1nc(-c2ccc(F)cc2)cn1-c1ccc(F)cc1)N1CCN(c2ccccn2)CC1; 7.27
O=C(Cc1nc(-c2ccccc2)cn1-c1ccccc1)N1CCN(c2ncccn2)CC1; 6.81
COc1ccc(-c2cn(-c3ccc(OC)cc3)c(CC(=O)N3CCN(c4ncccn4)CC3)n2)cc1; 7.06
Cc1cc(-c2cn(-c3ccc(F)cc3)c(CC(=O)N3CCN(c4ncncn4)CC3)n2)ccc1Cl; 7.46
COc1cc(N2CCN(C(=O)Cc3nc(-c4ccc(F)cc4)cn3-c3ccc(F)cc3)CC2)ncn1; 7.10

a = COc1cc(N2CCN(C(=O)Cc3nc(-c4ccc(Cl)c(C)c4)cn3-c3ccc(F)cc3)CC2)ncn1
b = Cc1cc(-c2cn(-c3ccc(F)cc3)c(CC(=O)N3CCN(c4cccnn4)CC3)n2)ccc1F
Which is greater in pEC50, the first item a or the second item b ? Identify your selection by its label.
b
